Origin of values: PubChem BioAssay (NCI)

Catalogue of growth values
- Test system: A549/ATCC NSCLC
- Assay details: NCI-60 one-dose screen, 48 h (100 = growth as untreated, 0 = no growth, -100 = all killed)
- Test settings: 10 µM unless noted
The panel holds about 83,000 compounds, 20% with a hit somewhere; the sample as a whole holds those more often.

Structure string: Cc1ccc(-c2csc(N/N=C/c3cccs3)n2)cc1
Scale unit: %
growth: 84.2
--
Structure string: O=C(CSc1nnc(-c2cccs2)n1-c1ccccc1)Nc1ccccc1
Scale unit: %
growth: 87.7
--
Structure string: CC/C(=C(/c1ccc(Cl)cc1)c1ccc(OCCN)cc1)c1ccccc1
Scale unit: %
growth: 86.2
--
Structure string: CC(=O)OCCCCN1C=C/C(=C\C(=O)n2ccc3ccccc32)c2ccccc21
Scale unit: %
growth: 113
--
Structure string: Oc1[nH]c2ccc(Cl)cc2c1N=Nc1nc(N=Nc2c(O)[nH]c3ccc(Cl)cc23)nc(N2CCOCC2)n1
Scale unit: %
growth: 101

* * *

- Tested on: EKVX NSCLC
- Assay details: NCI-60 one-dose screen, 48 h (100 = growth as untreated, 0 = no growth, -100 = all killed)
- Test settings: 10 µM unless noted
About 83,000 compounds went through this panel and 20% of them were active in at least one assay; those are over-represented in the sample as a whole.
Sorting guide: entries reporting growth beneath 50% go in the true pile, the rest go in the false pile.

Compound: Cc1ccc2c(n1)C(=O)C(Cl)=C(Nc1ccccc1C(=O)OC(C)(C)C)C2=O
Category: true
//
Compound: NC(N)=NS(=O)(=O)c1ccc(N=Nc2c(N)nn(-c3ccc([N+](=O)[O-])cc3[N+](=O)[O-])c2N)cc1
Category: false
//
Compound: O=C(CSc1nnc(-c2ccc(Cl)cc2)n1-c1ccccc1)Nc1ccccc1Cl
Category: false
//
Compound: O=C(Nc1cccc(C(F)(F)F)c1)N1CCN(c2cc(-c3cn(-c4ccccc4)nc3-c3cccc(O)c3)ccn2)CC1
Category: true
//
Compound: O=[N+]([O-])c1ccc(NC(=S)NNC(=S)Nc2ccc(Br)cc2)cc1
Category: false
//
Compound: CCCCCN1C(=O)/C(=c2\sc3n(c2=O)C2C(NN=3)N(CC)C(=O)N2CC)c2cccc(C)c21 (centres undefined)
Category: false
//
Compound: CCN(CC)CCOc1ccc(C(=C(c2ccccc2)C2CCCC2)c2ccc(OCCN(CC)CC)cc2)cc1
Category: true
//
Compound: C#Cc1nc(/C=C/CCCCCCC(=O)NO)cs1
Category: false

* * *

Catalogue of growth values
- Test system: MALME-3M melanoma
- Assay details: NCI-60 one-dose screen, 48 h (100 = growth as untreated, 0 = no growth, -100 = all killed)
- Test settings: 10 µM unless noted
The panel holds about 83,000 compounds, 20% with a hit somewhere; the sample as a whole holds those more often.

Molecule: O=C(CN1CCN(c2cc(=O)[nH]c3ccc(F)cc23)CC1)N(c1ccccc1)c1ccccc1
Measured target: MALME-3M melanoma
growth, %: 100
//
Molecule: C#C[C@]1(O)CC[C@H]2[C@@H]3CC=C4c5sc(NCc6ccccc6)nc5CC[C@]4(C)[C@H]3CC[C@@]21C
Measured target: MALME-3M melanoma
growth, %: 43.6
//
Molecule: N#C/C(=C\c1cccc2c1OCO2)C(=O)Nc1sc2c(c1C#N)CCCC2
Measured target: MALME-3M melanoma
growth, %: 105
//
Molecule: CCOC(=O)c1cccc(NC2=C(Cl)C(=O)c3nc(C)ccc3C2=O)c1
Measured target: MALME-3M melanoma
growth, %: 96.3
//
Molecule: CCOC(=O)c1ccc(NC2=CC(=O)C(C)=C(C)C2=O)cc1
Measured target: MALME-3M melanoma
growth, %: 97.1
//
Molecule: O=C1C(N2CCN(c3ccccc3)CC2)=C(Cl)C(=O)c2ncccc21
Measured target: MALME-3M melanoma
growth, %: -1.87
//
Molecule: O=C1[C@H]2Cc3c([nH]c4ccccc34)[C@H](c3ccc(Cl)cc3)N2C(=O)CN1C1CCN(CC2CCCCC2)CC1
Measured target: MALME-3M melanoma
growth, %: 45.8
//
Molecule: C#Cc1nc(/C=C/CCCCCCC(=O)NO)cs1
Measured target: MALME-3M melanoma
growth, %: 22
//
Molecule: Cc1ccc(C(=O)CSc2nnc(-c3ccc(-c4ccc(Cl)cc4)nc3C)o2)cc1
Measured target: MALME-3M melanoma
growth, %: 96.1
//
Molecule: NS(=O)(=O)c1nnc(/N=C/c2c(O)[nH]c3ccccc23)s1
Measured target: MALME-3M melanoma
growth, %: 109
//
Molecule: O=C(CCCCCCNC(=O)C(O)(O)C(F)(F)F)Nc1ccc(Br)cc1
Measured target: MALME-3M melanoma
growth, %: 10.1
//
Molecule: CN1CCN(Cc2ccc(NC(=O)c3cncc(C#Cc4cnc5ccc(OCC6COC6)nn45)c3)cc2C(F)(F)F)CC1
Measured target: MALME-3M melanoma
growth, %: -88.2
//
Molecule: Cc1ccsc1[C@H]1c2[nH]c3ccccc3c2C[C@H]2C(=O)N(CCCCCCC(=O)NO)CC(=O)N12
Measured target: MALME-3M melanoma
growth, %: 25.6
//
Molecule: O=C(CSc1nnc(-c2cccs2)n1-c1ccccc1)Nc1ccccc1F
Measured target: MALME-3M melanoma
growth, %: 70.2
//
Molecule: Cc1ccc(C(=O)Nc2ccc(CNCCN3CCOCC3)c(C(F)(F)F)c2)cc1C#Cc1cnc2cccnn12
Measured target: MALME-3M melanoma
growth, %: -44.6
//
Molecule: COc1ccc(N2CCN(C3=C(Cl)C(=O)c4ncccc4C3=O)CC2)cc1
Measured target: MALME-3M melanoma
growth, %: 23.7
//
Molecule: CN1CCN(Cc2ccc(NC(=O)c3cncc(C#Cc4cnc5ccc(OC6CCOCC6)nn45)c3)cc2C(F)(F)F)CC1
Measured target: MALME-3M melanoma
growth, %: -87.5
//
Molecule: Cc1cc(Br)ccc1-n1cc(C#N)c(N)c1C(=O)c1ccc(Br)cc1
Measured target: MALME-3M melanoma
growth, %: 106
//
Molecule: Clc1cccc(/C=N/Nc2nc(N/N=C/c3cccc(Cl)c3)nc(N3CCCCC3)n2)c1
Measured target: MALME-3M melanoma
growth, %: 109
//
Molecule: CCN(CC)CCOc1ccc(C(=C(c2ccccc2)C2CCCC2)c2ccc(OCCN(CC)CC)cc2)cc1
Measured target: MALME-3M melanoma
growth, %: -0.396
//
Molecule: CC(=O)N(O)CCCCCNC(=O)CCC(=O)N(O)CCCCCNC(=O)CCC(=O)N(O)CCCCCN(CCCCCCCCCC[P+](c1ccccc1)(c1ccccc1)c1ccccc1)CCCCCCCCCC[P+](c1ccccc1)(c1ccccc1)c1ccccc1
Measured target: MALME-3M melanoma
growth, %: -17.4
//
Molecule: CCNC(=O)Oc1ccc(/C(=C(/C)c2ccc(Cl)cc2)c2ccc(OCCN3CCCCCC3)cc2)cc1
Measured target: MALME-3M melanoma
growth, %: -58.4
//
Molecule: COc1ccc(OC)c(NC(=O)CCCCCCNC(=O)C(O)(O)C(F)(F)F)c1
Measured target: MALME-3M melanoma
growth, %: 24.9
//
Molecule: CC1=C(C)C(=O)C(Nc2ccc3c(c2)OCO3)=C(Br)C1=O
Measured target: MALME-3M melanoma
growth, %: 112
//
Molecule: COc1cccc2c1C=CC1(O2)Oc2cccc(OC)c2C=C1C (stereo not drawn)
Measured target: MALME-3M melanoma
growth, %: 60.4
//
Molecule: COc1ccc(C(=O)c2c(N)c(C#N)cn2-c2ccc(Cl)cc2Cl)cc1
Measured target: MALME-3M melanoma
growth, %: 96.9
//
Molecule: C=C1CCc2nc(SCC(=O)O)ccc2N1
Measured target: MALME-3M melanoma
growth, %: 104
//
Molecule: Cc1ccc(C(=O)Nc2ccc(CNCCN3CCNCC3)c(C(F)(F)F)c2)cc1C#Cc1cnc2cccnn12
Measured target: MALME-3M melanoma
growth, %: -70.8
//
Molecule: COc1cc(OC)cc(-c2cc(-c3c[nH]c4ccccc34)nc(-c3c[nH]c4ccccc34)c2C#N)c1
Measured target: MALME-3M melanoma
growth, %: 108
//
Molecule: CC(Nc1ncnc2ccc(-c3cnc4cnccn34)cc12)c1ccccc1 (stereo not drawn)
Measured target: MALME-3M melanoma
growth, %: 58
//
Molecule: COC(=O)c1cccc(NC2=C(Cl)C(=O)C(C)=C(C)C2=O)c1
Measured target: MALME-3M melanoma
growth, %: 95.8
//
Molecule: N/C(=N\C(N)=N\c1nc2ccccc2s1)c1ccc(Cl)cc1
Measured target: MALME-3M melanoma
growth, %: 90.3
//
Molecule: Cc1ccc(NC(=O)Nc2nc3ccc([N+](=O)[O-])cc3s2)cc1
Measured target: MALME-3M melanoma
growth, %: -19.2
//
Molecule: O=C(NCCNc1cc(-c2cn(-c3ccccc3)nc2-c2cccc(O)c2)ccn1)Nc1cc(C(F)(F)F)cc(C(F)(F)F)c1
Measured target: MALME-3M melanoma
growth, %: 90.6
//
Molecule: COc1ccc(Cn2cc(C#N)c(N)c2C(C)=O)cc1
Measured target: MALME-3M melanoma
growth, %: 102
//
Molecule: N#Cc1c(-c2cccs2)cc(-c2cnccn2)nc1SCC(=O)N/N=C/c1ccncc1
Measured target: MALME-3M melanoma
growth, %: 120
//
Molecule: CC(C)(C)Nc1nc2c(OCCc3ccccc3)cccn2c1-c1ccc([N+](=O)[O-])cc1
Measured target: MALME-3M melanoma
growth, %: 83.6
//
Molecule: COc1ccc(/C=N/NC(=O)CSc2nc(-c3cnccn3)cc(-c3cccs3)c2C#N)cc1
Measured target: MALME-3M melanoma
growth, %: 91.9
